The entries below come with measured inhibition values attached.
Experiment: blockers of RIG-like receptor reporter activation – cell-based, Sendai virus stimulus, luciferase, 10K MLSCN set, TLR/RLR signaling modifier project, primary screen (AID 602276);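 note: firefly luciferase from ISG56 promoter only with Renilla not read in this screen; 0% = Sendai virus plus DMSO and 100% = medium plus DMSO without virus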
Settings: HEK293 RL24 IRF3 luciferase reporter, at 10 µM, active compounds read high
Active and inactive are the calls of the source.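 Rule for the calls: active = inhibition at or above 50% at 10 µM; inactive = inhibition below 50%.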

{"columns": ["compound", "inhibition"],
 "data": [
  ["CCCC1CCC(C(=O)Nn2cnc3ccccc3c2=O)CC1 (stereo not drawn)", "6.74% (inactive)"],
  ["CC(=O)NC1(c2nnnn2CCOC(=O)Nc2ccc(Cl)cc2)CCCCC1", "9.27% (inactive)"],
  ["COc1ccc(C2c3c(-c4ccccc4O)n[nH]c3C(=O)N2CCc2ccc(OC)c(OC)c2)cc1 (stereo not drawn)", "17.4% (inactive)"],
  ["O=c1c2cc3ccccc3n2cnn1Cc1ccccc1F", "-21.7% (inactive)"],
  ["CC(=O)Nc1ccc(S(=O)(=O)N(CC(=O)O)Cc2ccccc2)cc1", "8.06% (inactive)"],
  ["Cc1nc2ccc(F)cc2cc1C(=O)NCC1CCCO1 (stereo not drawn)", "17.3% (inactive)"],
  ["Cn1c(Cc2csc(N)n2)nnc1SCC(=O)NCc1ccccc1", "-2.1% (inactive)"],
  ["CC12CCC(C(=O)N3CCN(C(=O)C45CCC(C)(C(=O)O4)C5(C)C)CC3)(OC1=O)C2(C)C", "-54.1% (inactive)"]
]}

----------
Molecular target: Alpha-2C adrenergic receptor (Homo sapiens) (UniProt P18825)
Sequence (P18825 whole entry, looked up): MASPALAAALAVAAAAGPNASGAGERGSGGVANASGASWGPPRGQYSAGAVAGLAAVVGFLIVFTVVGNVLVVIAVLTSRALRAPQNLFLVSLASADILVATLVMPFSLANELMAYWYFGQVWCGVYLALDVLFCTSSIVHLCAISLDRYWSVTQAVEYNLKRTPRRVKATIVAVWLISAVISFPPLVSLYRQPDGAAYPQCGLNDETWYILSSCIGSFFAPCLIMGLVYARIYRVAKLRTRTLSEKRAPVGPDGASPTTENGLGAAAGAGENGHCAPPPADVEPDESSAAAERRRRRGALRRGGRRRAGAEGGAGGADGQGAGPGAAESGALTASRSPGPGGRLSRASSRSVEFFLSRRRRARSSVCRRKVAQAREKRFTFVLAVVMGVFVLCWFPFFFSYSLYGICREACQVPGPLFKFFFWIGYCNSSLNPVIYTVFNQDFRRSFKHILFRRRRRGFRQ
Experiment: compounds altering alpha2C-coupled GIRK flux – cell-based, HEK293 alpha2C/GIRK1/2, thallium flux, primary screen (AID 624);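 note: slope of fluorescence ratio to pre-addition baseline per second over 15 to 24 s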
Details: thallium flux BTC fluorescence, at 10 µM, actives lie on both sides

{"columns": ["compound", "slope"],
 "data": [
  ["CSc1cccc(NC(=O)CN(C)S(=O)(=O)c2ccccc2)c1", 0.00611],
  ["COC(=O)c1[nH]c2ccc(C)cc2c1NC(=O)CN1CCCC(C)(C)C1", 0.00452],
  ["COc1ccc(CCNC(=O)c2cnn3ccccc23)c(OC)c1OC", 0.00687],
  ["CC(C)CC(=O)N1CCN(S(=O)(=O)c2ccc(F)cc2)CC1", 0.00623],
  ["COc1ccccc1S(=O)(=O)Cc1ccc(C(=O)N2CCOCC2)o1", 0.00635],
  ["O=C(NCc1ccc2c(c1)OCO2)C1CCCN(S(=O)(=O)c2cccc3cccnc23)C1 (stereo not drawn)", 0.00698],
  ["Cc1ccc2cc(C(c3nnnn3C3CCCC3)N3CCN(c4ccc(F)cc4)CC3)c(=O)[nH]c2c1 (stereo not drawn)", 0.00624],
  ["O=C(Nc1cccc(F)c1)c1cccc(S(=O)(=O)N2CCOCC2)c1", 0.00763],
  ["CCOC(=O)c1[nH]c(C)c(C(=O)Nc2ccc(C)cc2C)c1C", 0.00666],
  ["CN(C)c1ccc(C(=O)OCC(=O)NC2CCCCC2)cc1", 0.00547],
  ["O=C(c1ccc2snnc2c1)N1CCOCC1", 0.00486],
  ["O=C(c1ccccc1)N1CCN(CC2CC=CCC2)CC1 (stereo not drawn)", 0.00325],
  ["COc1cccc(C(=O)n2cnnc2N)c1OC", 0.00713],
  ["Cc1ccc(N(C(=O)c2ccncc2)C2C=CS(=O)(=O)C2)cc1 (stereo not drawn)", 0.00723],
  ["CC(C)Sc1nc2c(c(=O)n1-c1ccc(F)cc1)SCC2", 0.00437],
  ["COCCn1cc(C(=O)c2ccccc2OCC(=O)Nc2cc(C)on2)cc(C#N)c1=O", 0.00464],
  ["CSc1ncc(Cl)c(C(=O)Nc2ccc(S(=O)(=O)N3CCOCC3)cc2)n1", 0.00479],
  ["Cc1ccc(-c2nn(-c3ccccc3)cc2/C=C(\\C#N)c2cccc(C#N)c2)o1", 0.0087],
  ["OC1(c2cccc(C(F)(F)F)c2)CCNCC1", 0.007],
  ["O=C(Nc1ccon1)c1cccc(S(=O)(=O)N2CCCC2)c1", 0.00556],
  ["CN(C)c1cccc(C(=O)OCC(=O)NCc2ccco2)c1", 0.0074],
  ["Cc1ccc2c(C(=O)CN3CCSCC3)c(C)[nH]c2c1", 0.00551],
  ["O=C(O)C(c1ccccc1)N1CCCC1 (stereo not drawn)", 0.00482],
  ["CCN(CC(=O)Nc1ccc2c(c1)CCC2)Cc1nc2ccccc2c(=O)[nH]1", 0.00524],
  ["CC(=O)Nc1c(O)[nH]c2ccccc12", 0.00575],
  ["COc1ccc(S(=O)(=O)Nc2ccc(Cl)cn2)c(C)c1C", 0.00866],
  ["O=C(NCCN1CCOCC1)c1ccc(CS(=O)(=O)Cc2ccccc2F)o1", 0.00503],
  ["O=C(Cn1c(NCCO)nc2ccccc21)c1ccccc1", 0.00599],
  ["Cc1cc(NC(c2cccnc2)c2c(C)[nH]c3ccccc23)no1 (stereo not drawn)", 0.00254],
  ["CC1=C(C(N)=O)C(c2ccccn2)n2nc(-c3ccccc3Cl)nc2N1 (stereo not drawn)", 0.0061],
  ["CCn1cc(C(=O)NCC2CCCO2)c(=O)c2cc(S(=O)(=O)N(C)C)ccc21 (stereo not drawn)", 0.00671],
  ["Cn1c(=O)[nH]c(=O)c2c1nc(Br)n2CCCSc1nc2ccccc2o1", 0.00502],
  ["Nc1ccc(-c2ccc(N)cc2C(F)(F)F)c(C(F)(F)F)c1", 0.00482],
  ["Cc1nnc(SCCCn2c(N3CCCCC3)nc3c2c(=O)[nH]c(=O)n3C)s1", 0.00412],
  ["CN(CC(=O)Nc1sccc1C#N)C1CCCCC1", 0.00552],
  ["COc1ccc2c(c1)C1(Nc3ccccc3-c3nc4ccccc4n31)C(=O)N2 (stereo not drawn)", 0.00486],
  ["O=C(CSc1nnc(C2COc3ccccc3O2)o1)N1CCCc2ccccc21 (stereo not drawn)", 0.00363],
  ["CCn1c(SCc2cc(=O)[nH]c3ccccc23)nc2c1c(=O)n(C)c(=O)n2C", 0.00504],
  ["Cc1cc(C)n2c(SCC(=O)Nc3cc(C)on3)nnc2n1", 0.00561],
  ["Cc1ccc(Nc2cc(C)nc3ncnn23)c(Cl)c1", 0.00625],
  ["CC(C)CCN(C)C1CCN(S(=O)(=O)c2ccc(F)cc2)CC1", 0.00577],
  ["CCOC(=O)Cc1csc(NC(=O)c2cccc(OC)c2)n1", 0.00478],
  ["CC(=O)Nc1sc2c(c1C#N)CCCCC2", 0.00723]
]}

----------
The entries below come with measured fluorescence slope values attached.
Target: Muscarinic acetylcholine receptor M4 (Homo sapiens) (UniProt P08173)
Sequence (P08173 whole entry, looked up): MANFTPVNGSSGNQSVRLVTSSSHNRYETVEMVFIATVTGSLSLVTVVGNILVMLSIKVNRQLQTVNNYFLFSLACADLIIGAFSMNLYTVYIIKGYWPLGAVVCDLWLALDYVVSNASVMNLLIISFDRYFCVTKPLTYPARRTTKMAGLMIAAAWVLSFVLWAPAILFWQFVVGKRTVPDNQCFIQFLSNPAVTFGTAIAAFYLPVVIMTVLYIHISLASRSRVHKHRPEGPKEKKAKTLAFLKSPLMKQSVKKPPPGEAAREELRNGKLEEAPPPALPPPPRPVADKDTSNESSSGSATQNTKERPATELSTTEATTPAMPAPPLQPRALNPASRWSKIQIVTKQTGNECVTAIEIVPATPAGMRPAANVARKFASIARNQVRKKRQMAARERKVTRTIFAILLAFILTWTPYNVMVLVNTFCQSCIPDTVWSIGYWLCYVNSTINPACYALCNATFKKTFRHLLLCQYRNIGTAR
Experiment: M4-linked GIRK flux change, two-sided – cell-based, HEK293 M4/GIRK, thallium flux, BTC-AM, M4 allosteric agonist project, primary screen (AID 625);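 note: thallium influx through GIRK channels coupled to M4 in HEK293 cells with BTC-AM dye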
Details: at 10 µM, actives lie on both sides

{"columns": ["compound", "system", "fluorescence slope"],
 "data": [
  ["CC12C(=O)N(CCC(=O)O)C(=O)C1C1C=CC2C1 (stereo not drawn)", "Muscarinic acetylcholine receptor M4 (Homo sapiens) (UniProt P08173)", 0.00503],
  ["COCCn1c(=NC(=O)CSC(C)=O)sc2cc(F)ccc21", "Muscarinic acetylcholine receptor M4 (Homo sapiens) (UniProt P08173)", 0.00556],
  ["CCOC(=O)c1c(NC(=O)CSc2nc3c(c(=O)n(C)c(=O)n3C)n2C(C)C)sc(C)c1C", "Muscarinic acetylcholine receptor M4 (Homo sapiens) (UniProt P08173)", 0.00617],
  ["c1ccc(-c2nn3nnnc3c3ccccc23)cc1", "Muscarinic acetylcholine receptor M4 (Homo sapiens) (UniProt P08173)", 0.00565],
  ["CN(Cc1cnn(C)c1)C(=O)c1cc2ccccc2oc1=O", "Muscarinic acetylcholine receptor M4 (Homo sapiens) (UniProt P08173)", 0.00454],
  ["CCCn1c2c(c(O)c(C(=O)Nc3ccc(C)cn3)c1=O)CCCC2", "Muscarinic acetylcholine receptor M4 (Homo sapiens) (UniProt P08173)", 0.00777],
  ["COc1cc(OC)c(C(=O)Nc2ncn[nH]2)cc1OC", "Muscarinic acetylcholine receptor M4 (Homo sapiens) (UniProt P08173)", 0.00435],
  ["COc1ccccc1Nc1nc(N)nc(CSc2nccc(C)n2)n1", "Muscarinic acetylcholine receptor M4 (Homo sapiens) (UniProt P08173)", 0.00561],
  ["COCCNc1nc(SCC(=O)N2CCN(c3ccccc3)CC2)nc2ccccc12", "Muscarinic acetylcholine receptor M4 (Homo sapiens) (UniProt P08173)", 0.0054],
  ["Cc1ccc(NC(=O)CNc2cccc(C)c2C)c(C)c1", "Muscarinic acetylcholine receptor M4 (Homo sapiens) (UniProt P08173)", 0.00498],
  ["Cc1nc2c3cnn(-c4ccccc4)c3ncn2n1", "Muscarinic acetylcholine receptor M4 (Homo sapiens) (UniProt P08173)", 0.00848],
  ["c1ccc(-c2cn3cccnc3n2)cc1", "Muscarinic acetylcholine receptor M4 (Homo sapiens) (UniProt P08173)", 0.00503],
  ["CN(C)/C=C(\\C#N)c1nc2ccccc2[nH]1", "Muscarinic acetylcholine receptor M4 (Homo sapiens) (UniProt P08173)", 0.00457],
  ["C[C@H](NC(=O)Nc1cccc(C(F)(F)F)c1)C(=O)O", "Muscarinic acetylcholine receptor M4 (Homo sapiens) (UniProt P08173)", 0.00427],
  ["CCOCCn1cnc2sc(C(=O)Nc3nc(C)c(C(=O)OCC)s3)c(C)c2c1=O", "Muscarinic acetylcholine receptor M4 (Homo sapiens) (UniProt P08173)", 0.0063],
  ["CC1(C)CC(=O)C=C(Nc2ccc(F)cc2)C1", "Muscarinic acetylcholine receptor M4 (Homo sapiens) (UniProt P08173)", 0.00469],
  ["Cn1cccc1-c1cc(C(=O)O)[nH]n1", "Muscarinic acetylcholine receptor M4 (Homo sapiens) (UniProt P08173)", 0.00382],
  ["COc1ccc(OC)c(S(=O)(=O)NCCO)c1", "Muscarinic acetylcholine receptor M4 (Homo sapiens) (UniProt P08173)", 0.00652],
  ["Cc1ccc(-c2[nH]nc3c2C(c2ccc(OC(=O)N4CCOCC4)cc2)C(C#N)=C(N)O3)cc1 (stereo not drawn)", "Muscarinic acetylcholine receptor M4 (Homo sapiens) (UniProt P08173)", 0.00718],
  ["CCc1cc2ccc(C)cc2nc1SCC(=O)N1CCN(C(=O)c2ccco2)CC1", "Muscarinic acetylcholine receptor M4 (Homo sapiens) (UniProt P08173)", 0.00487],
  ["COc1ccc2nc(NC(=O)CSc3nnc(-c4ccoc4C)n3C)sc2c1", "Muscarinic acetylcholine receptor M4 (Homo sapiens) (UniProt P08173)", 0.00441],
  ["CCn1c(SCC(=O)NCc2ccco2)nc2c(c1=O)SC(C)C2 (stereo not drawn)", "Muscarinic acetylcholine receptor M4 (Homo sapiens) (UniProt P08173)", 0.0058],
  ["CC(C)CN1C(=O)c2ccc(C(=O)Nc3nccs3)cc2C1=O", "Muscarinic acetylcholine receptor M4 (Homo sapiens) (UniProt P08173)", 0.00611],
  ["Cc1ccc(-c2nnn(CC(=O)N(CC(=O)NC3CCCCC3)c3cnc4ccccc4c3)n2)o1", "Muscarinic acetylcholine receptor M4 (Homo sapiens) (UniProt P08173)", 0.00469],
  ["CCOC(=O)N1CCC(NC(=O)c2ccc3c(c2)N(C)CCS3)CC1", "Muscarinic acetylcholine receptor M4 (Homo sapiens) (UniProt P08173)", 0.00744],
  ["COc1ccc(N2CCN(C(=O)CSc3ncnc4c3cnn4-c3ccccc3C)CC2)cc1", "Muscarinic acetylcholine receptor M4 (Homo sapiens) (UniProt P08173)", 0.0046],
  ["CCOC(=O)c1sc(NC(=O)CNC(=O)Cn2cnc3sc(C)c(C)c3c2=O)nc1C", "Muscarinic acetylcholine receptor M4 (Homo sapiens) (UniProt P08173)", 0.00606],
  ["CC(Oc1ccc(Br)cc1)C(=O)N1CCc2ccccc21 (stereo not drawn)", "Muscarinic acetylcholine receptor M4 (Homo sapiens) (UniProt P08173)", 0.00581],
  ["COc1cc(C2=NOC(C(=O)NCc3ccc(F)cc3)C2)cc(OC)c1OC (stereo not drawn)", "Muscarinic acetylcholine receptor M4 (Homo sapiens) (UniProt P08173)", 0.00672],
  ["O=C(Cn1c(=O)[nH]c2ccsc2c1=O)N1CCN(c2ccc(F)cc2)CC1", "Muscarinic acetylcholine receptor M4 (Homo sapiens) (UniProt P08173)", 0.00533],
  ["CC(=O)Nc1ccc(S(=O)(=O)n2nc(C)cc2C)cc1", "Muscarinic acetylcholine receptor M4 (Homo sapiens) (UniProt P08173)", 0.00409],
  ["O=C(CSc1ncccn1)c1ccccc1Br", "Muscarinic acetylcholine receptor M4 (Homo sapiens) (UniProt P08173)", 0.00475],
  ["O=C(O)C1CCCN1C(=O)Nc1ccc(F)cc1 (stereo not drawn)", "Muscarinic acetylcholine receptor M4 (Homo sapiens) (UniProt P08173)", 0.00613],
  ["CC(C)=CC(=O)OCC(=O)NC(=O)NC(C)(C)C", "Muscarinic acetylcholine receptor M4 (Homo sapiens) (UniProt P08173)", 0.00792],
  ["Cc1ccc(C)n1NC(=O)c1ccco1", "Muscarinic acetylcholine receptor M4 (Homo sapiens) (UniProt P08173)", 0.00521],
  ["O=C(NCc1cccnc1)c1cn(CCc2ccccc2)nn1", "Muscarinic acetylcholine receptor M4 (Homo sapiens) (UniProt P08173)", 0.0065],
  ["CCOc1cc(C(=O)NCC2CCCO2)cc(OCC)c1OCC (stereo not drawn)", "Muscarinic acetylcholine receptor M4 (Homo sapiens) (UniProt P08173)", 0.00818],
  ["N#Cc1c(NC(=O)CSc2nnnn2C2CCCC2)sc2c1CCCC2", "Muscarinic acetylcholine receptor M4 (Homo sapiens) (UniProt P08173)", 0.00642]
]}

Just for reference, PubChem BioAssay is where these values come from.
